tested on: HCC-2998 colon; test: NCI tumour cell line growth inhibition, 48 h

>  <compound>
COc1ccc(-c2ncn(C[Si](C)(C)C)c2-c2ccc(OC)cc2)cc1

>  <target>
HCC-2998 colon

>  <TGI>
7.34 µM

$$$$
>  <compound>
C=CC(=O)N1C/C(=C\c2ccc([N+](=O)[O-])cc2)C(=O)/C(=C/c2ccc([N+](=O)[O-])cc2)C1

>  <target>
HCC-2998 colon

>  <TGI>
1.21 µM

$$$$
>  <compound>
C=CCC1(C(=O)OC(C)(C)C)C(OC)=C(C(=O)OC(C)(C)C)C2C1C(C(=O)OC(C)(C)C)=C(OC)C2(CC=C)C(=O)OC(C)(C)C (stereo not given)

>  <target>
HCC-2998 colon

>  <TGI>
> 100 µM

$$$$
>  <compound>
Cc1ccc(NC(=O)/C(Cc2cc(=O)oc3cc(O)ccc23)=N\NC(C)(C)C)cc1C

>  <target>
HCC-2998 colon

>  <TGI>
> 100 µM

$$$$
>  <compound>
COC(=O)c1cn(CC(O)CCl)nn1 (stereo not given)

>  <target>
HCC-2998 colon

>  <TGI>
> 100 µM

$$$$
>  <compound>
COc1cc(NS(C)(=O)=O)ccc1NCc1c2ccccc2nc2ccccc12

>  <target>
HCC-2998 colon

>  <TGI>
> 100 µM

$$$$
>  <compound>
CC(=O)NNc1nc(C)c(C(=O)/C=C/c2ccc(Cl)cc2)s1

>  <target>
HCC-2998 colon

>  <TGI>
> 100 µM

$$$$
>  <compound>
Cc1ccc(-c2cc[n+]3c(n2)oc2ccccc23)cc1

>  <target>
HCC-2998 colon

>  <TGI>
> 100 µM

$$$$
>  <compound>
CC1CC(C)C2OC2(C)C[C@H](C)C(=O)NC(C)C(=O)N(C)[C@H](Cc2c(Br)[nH]c3ccccc23)C(=O)N[C@@H](c2ccc(O)cc2)CC(=O)O1 (stereo not given in full)

>  <target>
HCC-2998 colon

>  <TGI>
0.505 µM

$$$$
>  <compound>
Clc1ccc2nc(CI)c(CI)nc2c1

>  <target>
HCC-2998 colon

>  <TGI>
30.3 µM

$$$$
>  <compound>
Nc1ccc2ccc(N3CCNCC3)nc2n1

>  <target>
HCC-2998 colon

>  <TGI>
> 100 µM

$$$$
>  <compound>
CCOC(=O)C(=CNC(=S)N=Nc1c(O)[nH]c2ccccc12)C(=O)OCC

>  <target>
HCC-2998 colon

>  <TGI>
> 100 µM

$$$$
>  <compound>
COc1ccc(NC(C(N)=O)c2cc3cc(Br)ccc3nc2Cl)cc1 (stereo not given)

>  <target>
HCC-2998 colon

>  <TGI>
> 100 µM

$$$$
>  <compound>
COc1ccc2c(c1)NC1(CCN(CCCC(=O)c3ccc(F)cc3)CC1)N=N2

>  <target>
HCC-2998 colon

>  <TGI>
28.2 µM

$$$$
>  <compound>
N/N=C(\c1nc2ccc(Cl)cc2[nH]c1=O)C(O)c1ccc(Cl)c(Cl)c1 (stereo not given)

>  <target>
HCC-2998 colon

>  <TGI>
> 100 µM

$$$$
>  <compound>
C#CC1(O)CCC2[C@@H]3CCc4cc(Oc5nc(F)nc(-c6c7ccccc7c(SCC)n6CCC)n5)ccc4C3CC[C@@]21C (stereo not given in full)

>  <target>
HCC-2998 colon

>  <TGI>
> 100 µM

$$$$
>  <compound>
COC(=O)c1c2c(c(C)[n+]([O-])c1C)C(=O)C=C(NCc1cccc(Cl)c1)C2=O

>  <target>
HCC-2998 colon

>  <TGI>
1.42 µM

$$$$
>  <compound>
Cc1ccc(S(=O)(=O)C2=c3nc4ccccc4cc3=C3C(=O)c4ccccc4C(=O)C32)cc1 (stereo not given)

>  <target>
HCC-2998 colon

>  <TGI>
> 100 µM

$$$$
>  <compound>
CN(C)CCNC(=O)c1cccc2nc3c(C(=O)NCCN(C)C)cccc3nc12

>  <target>
HCC-2998 colon

>  <TGI>
4.12 µM

$$$$
>  <compound>
Cc1ccc2nc3cc(C)c(=O)cc-3sc2c1

>  <target>
HCC-2998 colon

>  <TGI>
> 100 µM

$$$$
